- Tested on: HL-60(TB) leukemia
- MEASUREMENT NOTES: NCI tumour cell line growth inhibition, 48 h
TGI values for the compounds below.
MEASURE NAME: TGI

* NC(=O)NC1=NC(Cc2ccccc2)C(=O)N1Cc1ccccc1 (centres undefined) | > 100 µM
* Cc1nc2c(O)cc3c4c(n(Cc5ccccc5)c3c2nc1C)C(=O)CCC4 | > 100 µM
* CCCNC(=O)Cn1c(C)cc2ccccc21 | > 100 µM
* S=C(c1ccc2c(c1)OCO2)N1CCN(c2cccc(Cl)c2)CC1 | 0.642 µM
* O=C1C(=c2cc3c(c4ccccc24)=NC24CCCCC2C(c2ccccc2)C=C(c2ccccc2)N34)C(=O)c2ccccc21 (centres undefined) | > 100 µM
* COc1ccccc1C(N)c1ccccc1 (centres undefined) | > 100 µM
* Cc1ccc(-c2nc(N)c(C#N)c3c2CCOc2c-3ccc3ccccc23)cc1 | 0.916 µM
* CC(=O)OC[C@@]1(C)[C@@H]2[C@@H]3[C@@]4(CO[C@]3(C)C(=O)[C@@]3(O)C[C@H](C)[C@H](OC(C)=O)[C@@H]3[C@H]4OC(C)=O)[C@H](OC(=O)c3ccccc3)C[C@@H]21 | > 100 µM
* N=c1n(Cc2ccccc2)c(N)cc(=O)n1Cc1ccccc1 | 4.93 µM
